Listed compounds paired with reported GI50
System: SK-OV-3
Method notes: NCI tumour cell line growth inhibition, 48 h
The source made the active and inactive calls. Rule as the data show it: active = GI50 up to about 1.1 µM and inactive = higher.

Guide cases for GI50, answers given:
[
  {
    "Compound": "COc1ccc(/C(C=O)=C(\\Cl)c2ccc(OC)c(OC)c2)cc1",
    "GI50": "67.1 µM (inactive)"
  },
  {
    "Compound": "N#C/C(=C\\c1ccc(O)cc1)C(N)=O",
    "GI50": "> 100 µM (inactive)"
  },
  {
    "Compound": "O=C1/C(=N/c2ccc(Nc3ccccc3)cc2)Oc2ccccc21",
    "GI50": "5.98 µM (inactive)"
  }
]

INPUT: Look up GI50 with SK-OV-3 for this compound: CC(=O)Oc1ccccc1/C=C/C(=O)/C=C/c1ccccc1OC(C)=O
OUTPUT: 4.15 µM (inactive)

INPUT: Look up GI50 with SK-OV-3 for this compound: CC(=O)O[C@]1(C(C)=O)CC[C@H]2[C@@H]3C[C@H](C)C4=CC(=O)C=C[C@]4(C)[C@@]3(F)[C@@H](O)C[C@@]21C [FLUOROMETHOLONE ACETATE]
OUTPUT: < 0.01 µM (active)

INPUT: Look up GI50 with SK-OV-3 for this compound: Cc1cn2c(=O)c3ccccc3nc2s1
OUTPUT: > 100 µM (inactive)

INPUT: Look up GI50 with SK-OV-3 for this compound: O=C1NC(c2ccccc2)C1N(Cc1ccccc1)Cc1ccccc1 (stereo not given)
OUTPUT: > 100 µM (inactive)
